- target-desc: SRPK1 (Homo sapiens, UniProt Q96SB4)
- Construct: 0.1 µg of purified SRPK1 kinase
- Sequence (Q96SB4 whole entry): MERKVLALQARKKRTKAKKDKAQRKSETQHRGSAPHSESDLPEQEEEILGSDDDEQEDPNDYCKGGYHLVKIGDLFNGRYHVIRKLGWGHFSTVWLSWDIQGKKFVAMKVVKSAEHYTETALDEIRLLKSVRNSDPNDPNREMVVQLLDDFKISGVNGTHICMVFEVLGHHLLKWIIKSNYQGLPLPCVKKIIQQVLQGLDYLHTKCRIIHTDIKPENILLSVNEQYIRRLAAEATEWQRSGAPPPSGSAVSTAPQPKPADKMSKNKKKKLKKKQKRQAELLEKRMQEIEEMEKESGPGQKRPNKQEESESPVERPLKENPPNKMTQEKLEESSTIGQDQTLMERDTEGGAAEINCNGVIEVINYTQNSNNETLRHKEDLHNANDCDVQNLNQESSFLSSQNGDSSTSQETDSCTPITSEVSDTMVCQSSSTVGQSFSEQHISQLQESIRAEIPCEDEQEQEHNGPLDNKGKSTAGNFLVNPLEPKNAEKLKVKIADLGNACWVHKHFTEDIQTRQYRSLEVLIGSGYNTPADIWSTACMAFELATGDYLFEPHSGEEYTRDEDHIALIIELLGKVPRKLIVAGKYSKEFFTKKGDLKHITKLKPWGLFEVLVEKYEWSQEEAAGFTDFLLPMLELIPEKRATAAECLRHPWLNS
- assay-overview: Differential scanning fluorimetry (DSF)
- Type: binding
- experimental-parameters: higher ΔTm indicates higher affinity
property-name: DSF (ΔTm/°C)

A selection of reference data follows.
O=C(Nc1cc(C(F)(F)F)ccc1N1CCN(Cc2cscn2)CC1)c1ccco1 = 12.94
O=C(Nc1cc(Cl)ccc1N1CCN(Cc2ccco2)CC1)c1ccccn1 = 11.97
Cn1ccc(CN2CCN(c3ccc(C(F)(F)F)cc3NC(=O)c3ccco3)CC2)n1 = 10.87
O=C(Nc1cc(C(F)(F)F)ccc1N1CCN(Cc2ccco2)CC1)c1ccccn1 = 14.44

(a) Cc1ccc(C(=O)Nc2cc(C(F)(F)F)ccc2N2CCN(Cc3cn(Cc4ccccc4)nn3)CC2)o1
(b) O=C(Nc1cc(C(F)(F)F)ccc1N1CCN(Cc2cc[nH]n2)CC1)c1ccc(C2CCOCC2)o1
Kindly compare a with b and tell me which has the lower DSF (ΔTm/°C) figure. Pick one; state its label.
a

(a) O=C(Nc1cc(C(F)(F)F)ccc1N1CCN(Cc2cc[nH]n2)CC1)c1ccco1
(b) O=C(Nc1cc(C(F)(F)F)ccc1N1CCN(Cc2cscn2)CC1)c1ccc(C2CCOCC2)o1
Kindly compare a with b and tell me which has the lower DSF (ΔTm/°C) figure. Pick one; state its label.
a
(a: 11.64 °C, b: 18.03 °C)
